Origin of the recorded values: patent US10259810B2

# systemTested: ΔF508-CFTR (Homo sapiens, UniProt P13569, DEL508-508)
# Construct: host or cells: CFBE41o-, doxycycline-inducible
# Sequence (P13569 with tags, fused parts or gaps DEL508-508): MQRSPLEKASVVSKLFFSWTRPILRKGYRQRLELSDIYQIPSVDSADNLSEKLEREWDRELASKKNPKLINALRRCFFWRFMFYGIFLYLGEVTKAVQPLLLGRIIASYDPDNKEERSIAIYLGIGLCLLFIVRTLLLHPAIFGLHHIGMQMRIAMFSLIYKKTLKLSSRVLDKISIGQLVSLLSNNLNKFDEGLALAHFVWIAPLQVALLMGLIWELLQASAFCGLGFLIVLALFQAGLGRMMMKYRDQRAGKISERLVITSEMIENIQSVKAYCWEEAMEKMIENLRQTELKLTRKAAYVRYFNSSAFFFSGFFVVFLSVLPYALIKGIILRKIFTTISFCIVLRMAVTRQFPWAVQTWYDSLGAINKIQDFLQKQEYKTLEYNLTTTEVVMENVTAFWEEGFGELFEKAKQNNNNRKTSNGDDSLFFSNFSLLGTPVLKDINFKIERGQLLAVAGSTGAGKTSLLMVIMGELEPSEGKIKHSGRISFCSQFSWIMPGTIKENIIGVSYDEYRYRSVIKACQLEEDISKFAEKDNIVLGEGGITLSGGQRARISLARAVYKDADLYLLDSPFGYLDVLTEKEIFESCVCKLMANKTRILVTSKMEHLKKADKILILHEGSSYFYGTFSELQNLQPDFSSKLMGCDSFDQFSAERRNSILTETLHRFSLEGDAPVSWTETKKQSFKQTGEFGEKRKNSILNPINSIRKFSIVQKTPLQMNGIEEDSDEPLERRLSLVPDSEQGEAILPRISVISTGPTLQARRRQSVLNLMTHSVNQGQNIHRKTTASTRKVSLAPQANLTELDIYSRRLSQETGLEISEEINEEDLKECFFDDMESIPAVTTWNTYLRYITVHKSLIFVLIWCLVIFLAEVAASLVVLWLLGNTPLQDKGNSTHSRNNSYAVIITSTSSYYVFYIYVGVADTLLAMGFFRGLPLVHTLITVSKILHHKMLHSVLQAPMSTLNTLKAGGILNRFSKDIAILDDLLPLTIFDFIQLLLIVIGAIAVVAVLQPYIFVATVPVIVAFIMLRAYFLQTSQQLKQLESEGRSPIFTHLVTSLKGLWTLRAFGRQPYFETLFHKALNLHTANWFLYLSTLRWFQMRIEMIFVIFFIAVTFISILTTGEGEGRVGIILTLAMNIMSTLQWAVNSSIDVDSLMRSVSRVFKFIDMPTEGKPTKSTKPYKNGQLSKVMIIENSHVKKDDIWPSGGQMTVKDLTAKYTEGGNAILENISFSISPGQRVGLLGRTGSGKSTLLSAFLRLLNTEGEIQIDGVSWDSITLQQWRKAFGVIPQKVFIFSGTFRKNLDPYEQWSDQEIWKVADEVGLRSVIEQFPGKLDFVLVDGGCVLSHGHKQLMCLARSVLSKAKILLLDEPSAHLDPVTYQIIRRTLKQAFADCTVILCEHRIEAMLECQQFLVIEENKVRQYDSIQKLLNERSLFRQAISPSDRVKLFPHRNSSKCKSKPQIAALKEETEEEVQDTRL
# experiment: CFTR cell surface levels using HRP-tagged ΔF508-CFTR expressing CFBE cells, intrinsic corrector capacity
# Format: cell-based
# Design: concentration or dose not given beside the values
# runParameters: HRP-tagged ΔF508-CFTR expressing CFBE41o- cells; compound alone (intrinsic corrector capacity); 20 hours at 33° C.
// thresholds for % Activation classes: class 1: < 200%; class 2: ≥ 200% and < 300%; class 3: ≥ 300%

CC(C)c1nn(-c2cccc(N3CCCC3)c2)c2nc(C(=O)NS(C)(=O)=O)cc(-c3ccc(N4CCOCC4)cc3)c12 :: class 3
CCS(=O)(=O)NC(=O)c1cc(-c2ccc(N3CCOCC3)cc2)c2c(C3(C)CCC3)nn(-c3ccccc3)c2n1 :: class 2
COCC1CCN(c2cc(C(=O)NS(=O)(=O)N(C)C)nc3c2c(C2CCC2)nn3-c2ccnc(C3CCOCC3)c2)CC1 :: class 1
CC(C)Oc1nn(C2CCCCC2)c2nc(C(=O)NS(C)(=O)=O)cc(-c3ccc(CN4CCN(C(C)C)CC4)cc3)c12 :: class 2
CC(C)N1CCC2CN(c3cc(C(=O)NS(=O)(=O)N(C)C)nc4c3c(C3CCC3)nn4-c3ccc(F)cc3)CCC21 (stereo not shown) :: class 1

Request: Looking at CNS(=O)(=O)NC(=O)c1cc(N2CCN(C(=O)OCC(C)C)CC2)c2c(C3CCC3)nn(-c3ccc(F)cc3)c2n1 , which class would you pick?
Result: class 3

Request: Looking at CC(C)c1nn(-c2cccc(N3CCOCC3)c2)c2nc(C(=O)NS(C)(=O)=O)cc(-c3ccc(N4CCC(C#N)CC4)nc3)c12 , which class would you pick?
Result: class 3

Request: Looking at CC(C)c1nn(-c2cccc(N(C)C)c2)c2nc(C(=O)NS(C)(=O)=O)cc(-c3ccc(N4CCC(C#N)CC4)nc3)c12 , which class would you pick?
Result: class 3

Request: Looking at CS(=O)(=O)NC(=O)c1cc(-c2ccc(N3CCC(C#N)CC3)nc2)c2c(n1)n(-c1ccccc1)nc2[C@H]1C[C@@H](F)C1 , which class would you pick?
Result: class 2

Request: Looking at CC(c1ccc(-c2cc(C(=O)NS(=O)(=O)N(C)C)nc3c2c(C2CCC2)nn3C2CCCCC2)cc1)N1CCOCC1 (stereo not shown) , which class would you pick?
Result: class 1

Request: Looking at CCS(=O)(=O)NC(=O)c1cc(-c2ccc(N(C)C)nc2)c2c(C(C)C)nn(-c3cccc(N4CCOCC4)c3)c2n1 , which class would you pick?
Result: class 2

Request: Looking at COCCN(CCOC)c1ccc(-c2cc(C(=O)NS(C)(=O)=O)nc3c2c(C(C)C)nn3C2CCCCC2)cn1 , which class would you pick?
Result: class 1

Request: Looking at CS(=O)(=O)NC(=O)c1cc(N2CCC(N3CCOCC3)CC2)c2c(C3CCC3)nn(-c3cccc(C(F)(F)F)c3)c2n1 , which class would you pick?
Result: class 3

---

# systemTested: ΔF508-CFTR (Homo sapiens, UniProt P13569, DEL508-508)
# Construct: host or cells: CFBE41o-, doxycycline-inducible
# experiment: CFTR cell surface levels using HRP-tagged ΔF508-CFTR expressing CFBE cells, in the presence of a co-corrector
# Type: cell-based
# runParameters: HRP-tagged ΔF508-CFTR CFBE cells, in the presence of 3 μM co-corrector; read-out: EC50
quantityName: EC50 (nM)
Numbers only, in nM.

Here's what some known entries look like.
COCC1CCN(c2cc(C(=O)NS(=O)(=O)CCNC(C)=O)nc3c2c(C2CCC2)nn3-c2ccccc2)CC1 :: 685
COCC1CCN(c2cc(C(=O)NS(=O)(=O)CCCN3CCOCC3)nc3c2c(C(C)C)nn3-c2ccc(F)cc2)CC1 :: 43.3
CC(C)c1nn(-c2cccc(N3CCCC3)c2)c2nc(C(=O)NS(C)(=O)=O)cc(-c3ccc(N4CCOCC4)cc3)c12 :: 459
Cc1nn(-c2ccccc2)c2nc(C(=O)NS(=O)(=O)C3CC3)cc(-c3ccc(N4CCOCC4)cc3)c12 :: 298
CC(C)c1nn(C2CCCCC2)c2nc(C(=O)NS(C)(=O)=O)cc(-c3ccc(N4CCC(C#N)CC4)cc3)c12 :: 389

Quick request: EC50 for each listed item, please.
1. COC1CCN(c2ccc(-c3cc(C(=O)NS(C)(=O)=O)nc4c3c(C(C)C)nn4C3CCCCC3)cn2)C1 (stereo not shown)
2. Cc1cccc(-n2nc(C(C)C)c3c(N4CCC(S(C)(=O)=O)CC4)cc(C(=O)NS(C)(=O)=O)nc32)c1

Result:
394
885
